Kindly supply the reported GI50 values for the records listed here.
- Test system: OVCAR-3
- Assay info: NCI tumour cell line growth inhibition, 48 h
Activity calls are given as the source filed them. No stated cut-off is given here; in the data, active = GI50 up to about 1.1 µM and inactive = higher.

The molecule listed as CCOC(=O)CCC(NC(=O)C(N)Cc1ccc(N(CCCl)CCCl)cc1)C(=O)OCC (stereo not given) shows GI50 equal to 0.667 µM (active)

GET /value?item= O=[N+]([O-])/C=C/c1cn(CCCCCn2cc(/C=C/[N+](=O)[O-])c3ccccc32)c2ccccc12 &field=GI50 returns 1.78 µM (inactive)

For reference, reported GI50 for COCCOCCOC1=C(Cl)C(=O)c2c(O)ccc(O)c2C1=O stands at 1.63 µM (inactive)

For record NNC(=O)/C(NC(=O)c1ccccc1)=C(\N)c1cccc([N+](=O)[O-])c1 the listed GI50 is > 100 µM (inactive)

Briefly, GI50 measured for CC(=O)C1C(=O)C(=O)N(c2ccc(Cl)c(Cl)c2)C1=O (stereo not given) : > 100 µM (inactive)

// field: GI50; key: O=C1c2c(ccc3c2CCCC3)CC1Cc1ccc2c(c1)CCCC2 (stereo not given) ; value = > 100 µM (inactive)

The measured GI50 associated with O=C(CC(c1ccccc1)c1c(O)c2ccccc2oc1=O)c1ccccc1 (stereo not given) reads 30.4 µM (inactive)

Documented GI50 of C=CCCC(=O)CC(=O)OCc1ccccc1 : > 100 µM (inactive)

Value of measured GI50 for the entry COc1ccc(NC(=O)C(=O)C(CC2C(=O)NC(=S)NC2=O)C(=O)c2ccc3ccccc3c2)c([N+](=O)[O-])c1 (stereo not given) : > 100 µM (inactive)

The reported GI50 of the molecule CC(=O)On1c(-c2ccccc2-c2nc3ccccc3n2OC(C)=O)nc2ccccc21 was 24.3 µM (inactive)
